Assay: log P by HPLC on a reversed-phase column (C18), EEC Directive 79/831 Annex V.A8
Assay type: physicochemical
Conditions: acidic range, pH 2.7, 0.1% aqueous formic acid/acetonitrile gradient, 55° C., read-out: log P[a] (log P (HCOOH))

{"Compound": "CCOC(=O)c1ncc2ncsc2c1SCC", "chromatographic logP": 2.23}
{"Compound": "CCSc1c(-c2nc3cc(C(F)(F)F)ncc3n2C)ncc2ccsc12", "chromatographic logP": 2.95}
{"Compound": "CC[S+]([O-])c1c(-c2nc3cc(C(F)(F)F)cnc3n2C)ncc2ncsc12 (centres unmarked)", "chromatographic logP": 3.09}
{"Compound": "CCS(=O)(=O)c1c(-c2nc3cc(C(F)(F)F)cnc3n2C)ncc2sccc12", "chromatographic logP": 2.56}
{"Compound": "CCS(=O)(=O)c1c(-c2nc3cc(C(F)(F)F)cnc3n2C)ncc2ncsc12", "chromatographic logP": 2.6}
{"Compound": "CCS(=O)(=O)c1c(-c2nc3cc(C(F)(F)F)ncc3n2C)ncc2sccc12", "chromatographic logP": 2.3}
{"Compound": "CCOC(=O)c1ncc2ncsc2c1OS(=O)(=O)C(F)(F)F", "chromatographic logP": 2.58}
{"Compound": "CCS(=O)(=O)c1c(-c2nc3cc(C(F)(F)F)ncc3n2C)ncc2ccsc12", "chromatographic logP": 2.53}
{"Compound": "CCSc1c(-c2nc3cc(C(F)(F)F)cnc3n2C)ncc2ncsc12", "chromatographic logP": 2.96}
{"Compound": "CCS(=O)(=O)c1c(-c2nc3cc(C(F)(F)F)cnc3n2C)ncc2ccsc12", "chromatographic logP": 2.88}
{"Compound": "CCSc1c(C(=O)O)ncc2ncsc12", "chromatographic logP": 0.88}

---

Test: log P by HPLC on a reversed-phase column (C18), EEC Directive 79/831 Annex V.A8
Type: physicochemical
Conditions: neutral range, pH 7.8, 0.001 molar aqueous ammonium bicarbonate/acetonitrile gradient, 55° C., read-out: log P[n] (log P (neutral))

{"Molecule": "CCS(=O)(=O)c1c(-c2nc3cc(C(F)(F)F)cnc3n2C)ncc2sccc12", "chromatographic logP": 2.72}
{"Molecule": "CCS(=O)(=O)c1c(-c2nc3cc(C(F)(F)F)cnc3n2C)ncc2ncsc12", "chromatographic logP": 2.53}
{"Molecule": "CCOC(=O)c1ncc2ncsc2c1SCC", "chromatographic logP": 2.17}
{"Molecule": "CCS(=O)(=O)c1c(-c2nc3cc(C(F)(F)F)ncc3n2C)ncc2ccsc12", "chromatographic logP": 2.4}
{"Molecule": "CC[S+]([O-])c1c(-c2nc3cc(C(F)(F)F)cnc3n2C)ncc2ncsc12 (stereo not shown)", "chromatographic logP": 2.98}
{"Molecule": "CCSc1c(-c2nc3cc(C(F)(F)F)cnc3n2C)ncc2ncsc12", "chromatographic logP": 2.94}
{"Molecule": "CCS(=O)(=O)c1c(-c2nc3cc(C(F)(F)F)cnc3n2C)ncc2ccsc12", "chromatographic logP": 2.82}
{"Molecule": "CCOC(=O)c1ncc2ncsc2c1OS(=O)(=O)C(F)(F)F", "chromatographic logP": 2.57}
{"Molecule": "CCS(=O)(=O)c1c(-c2nc3cc(C(F)(F)F)ncc3n2C)ncc2sccc12", "chromatographic logP": 2.28}
{"Molecule": "CCSc1c(-c2nc3cc(C(F)(F)F)ncc3n2C)ncc2ccsc12", "chromatographic logP": 2.85}
